assay.explanation: NCI Yeast Anticancer Drug Screen. Data for the rad50 strain (AID 155);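 note: 0% = growth of vehicle-only cultures of the same strain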
assay.conditions: S. cerevisiae rad50 strain growth inhibition; at 50.0 µM; active compounds read high
Compounds without any hit were thinned out: in the full panel of roughly 79,000, 15% have a hit.
What growth inhibition was measured for each of the following?
Numeric answer only, unit % assumed.

Reported growth inhibition ( O=C(/C=C/c1cc2ccccc2o1)N1CCN(c2ccccn2)CC1 ) = 28.6

Value of growth inhibition reported for the compound CCOC(=O)C1C(C)=CC(=O)CC1C (stereo not drawn) is 19.8

For record CCCCCCCNc1nc(N)nc(Cl)n1 the listed growth inhibition is -0.15

----------
Please go through the items and note down their growth inhibition.
assay.explanation: NCI Yeast Anticancer Drug Screen. Data for the sgs1 mgt1 strain (AID 161);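 note: 0% = growth of cultures given vehicle only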
assay.conditions: S. cerevisiae sgs1 mgt1 strain, at 50.0 µM, active compounds read high
Protocol: Growth inhibition of yeast strains with defined genetic alterations is measured as a screen for potential anti-cancer activity. Selected strains with alterations in DNA damage repair or cell cycle control were exposed to compounds and growth inhibition was measured relative to vehicle treated controls. The strain used in this assay is sgs1 mgt1
Compounds without any hit were thinned out: in the full panel of roughly 79,000, 15% have a hit.
The answer is to be given in %; state only the numeric part.

// CC(C)=C(CSC#N)S(=O)(=O)c1ccc(C)cc1 : growth inhibition value = 7.1

For COC(=O)c1ccc(C(=O)OC)c2nc3cc(C)ccc3nc12 the compound record lists growth inhibition as -16.2

Value of growth inhibition reported for the compound CCCNc1ccc2c(c1)C(O)c1ccccc1-2 (configuration not stated) is 5.35

// growth inhibition value for O=[N+]([O-])[C@@H]1C[C@@H]2C=C[C@H]1CC2 : 2.6

Looking up CCCOC(=O)c1ccnc(C(=O)OCCC)c1 , I see its growth inhibition listed as -1.2

growth inhibition reported for this compound Cc1ccc(S(=O)(=O)N2CCSCCN(S(=O)(=O)c3ccc(C)cc3)CCN(S(=O)(=O)c3ccc(C)cc3)CC2)cc1 : 0.2

GET /value?item= O=C(Nc1ccc(S(=O)(=O)Nc2nccs2)cc1)c1cccnc1Nc1cccc(Cl)c1 &field=growth inhibition returns 22.2

In plain terms, CCOC(=O)N1N(C(=O)c2ccccc2)C(=O)CC1(C)C has a documented growth inhibition of 1.5

The compound listed as CCN1c2ccccc2CC(C#N)(CCN(C)C)c2ccccc21 (configuration not stated) shows growth inhibition equal to 2.65

Looking up COc1ccc(C(=O)c2ccccc2)cc1OC , I see its growth inhibition listed as -4.25

Quick note, growth inhibition for NC(=O)n1ncc(Cl)c(Cl)c1=O landed at 2.1

The compound identified as S=C1N(c2ccc(Br)cc2)C2=Nc3ccccc3SC(=C2N=Nc2ccccc2)N1c1ccc(Cl)cc1 registered its growth inhibition at -8.8

Quick note, growth inhibition for O=[N+]([O-])c1ccc(Br)cc1 landed at 17.7

Field growth inhibition (entry CCOC(=O)CCc1nc2ccccc2[nH]1 ) reads -0.3

Looking up COc1cc(/C=C/Cc2cc3c(cc2O)OCO3)cc(OC)c1OC , I see its growth inhibition listed as 0.55

compound CC(C)=CCC/C(C)=C/COC(=O)N(c1ccccc1)c1ccccc1 , growth inhibition observed: 3.9

# compound c1ccc(-c2nc3cc4ccccc4cc3nc2-c2ccccc2)cc1 ; its growth inhibition = -4.9

Recorded growth inhibition (compound CC1(C)CC(=O)C(CC(C(=O)C(=O)Nc2cc(C(F)(F)F)ccc2Cl)C(=O)c2ccco2)C(=O)C1 (configuration not stated) ): 18.9

For reference, reported growth inhibition for C/C(CC(C)(C)C)=N/O stands at -21.8

Lab note: CSc1c(C#N)c(N)nc2c(N=Nc3ccc(Cl)cc3)c(N)nn12 gave growth inhibition of -9.1

Query COCc1c(C)[nH]c2ccc(N(C)C)cc2c1=O yields growth inhibition of -14.8

Lab note: c1ccc2c3c(cc(CCc4cc5c(c6ccccc46)CCCC5)c2c1)CCCC3 gave growth inhibition of -5.65

Just so you know, measured growth inhibition for O=C(Nc1cccc(O)c1)OC1CCCCC1 came out at 25.2

Form: compound = C=Cc1ccc(C)[n+](C[Si](C)(C)O[Si](C)(C)C)c1 ; growth inhibition = -8.95

Notebook: c1ccc(CN(CCNc2ccccc2)c2ccccc2)cc1 , growth inhibition read as 46.2

Lab note: measured growth inhibition of Cc1ccc(S(=O)(=O)CCC(=O)c2ccccc2)cc1 was 0.95

COc1cc(C=Nc2ccc(C(C)C)cc2)cc(OC)c1OC has a reported growth inhibition of 19.1

Recorded result, S=c1nc[nH]c2c1ncn2C1CCCC1 , growth inhibition: -4.55

Quick note, growth inhibition for CCC/C(CC)=N\Nc1ccc([N+](=O)[O-])cc1[N+](=O)[O-] landed at -2.35

Entry under test: CC(C)(C)C1CCC2c3c([nH]c4ccccc34)C3C(=O)N(c4ccc(C#N)cc4)C(=O)C3C2C1 (configuration not stated) . Its growth inhibition was 54.9

get_value(item= O=[N+]([O-])c1cc(Cl)ccc1Nc1ccccc1 , readout=growth inhibition) returns 57.1

Consider C[C@@H](CC(=O)O)OC1OC(COC(=O)C(C)(C)C)C(OC(=O)C(C)(C)C)C(OC(=O)C(C)(C)C)C1OC(=O)C(C)(C)C (some centres not stated) . Its measured growth inhibition is -17.7

The recorded growth inhibition for CNCCC(Oc1ccccc1OC)c1ccccc1 (configuration not stated) is -1.2

The compound CN(C)NC(=O)Oc1ccc(Cl)cc1 showed growth inhibition equal to -11.4

The compound O=c1oc2c3ccc4ccccc4c3n(CCN3CCCCC3)c2c2ccccc12 showed growth inhibition equal to 22.9

get_value(item= Cc1ccccc1OCC(C)OC(N)=O (configuration not stated) , readout=growth inhibition) returns 2.1

Lab note: measured growth inhibition of N/C=N/OC(=O)c1ccccc1 was 11.8

----------
For each of the molecules below, state its growth inhibition.
assay.explanation: NCI Yeast Anticancer Drug Screen. Data for the mec2-1 strain (AID 157)
assay.conditions: S. cerevisiae mec2-1 strain, at 50.0 µM, active compounds read high
Experimental: Growth inhibition of yeast strains with defined genetic alterations is measured as a screen for potential anti-cancer activity. Selected strains with alterations in DNA damage repair or cell cycle control were exposed to compounds and growth inhibition was measured relative to vehicle treated controls. The strain used in this assay is mec2-1
Compounds without any hit were thinned out: in the full panel of roughly 79,000, 15% have a hit.
Form entry: value (%) — number only.

The measured growth inhibition associated with Cc1ccc(C(C(=O)O)c2ccc(C)cc2)cc1 reads 2.25

response.value for CCOC(=O)C(CCSC)(CCN(C)Cc1ccccc1)C(=O)OCC (field: growth inhibition) = -3.05

Nc1ccc(C(=O)Nc2ccc(NC(=O)c3ccco3)c(O)c2)cc1 has a reported growth inhibition of -11.3

Field growth inhibition (entry CCCCCCCCCCCCCCCc1cc(=O)n(-c2ccc(NC(C)=O)cc2)n1C ) reads -23.8

The value of growth inhibition measured for the molecule COC(=O)C(Br)C(Br)c1ccc(OC)c(OC)c1 (stereo not drawn) turned out to be -9.8

Short answer for Cc1cccc(Oc2ccc(C(F)(F)F)cc2[N+](=O)[O-])c1C : growth inhibition was -2.15

Value of measured growth inhibition for the entry CCC/C=C/C=C\C(=O)O[C@@H]1[C@@H](C)[C@]2(O)[C@@H]3C=C(C)C(=O)[C@H]3CC(COC(C)=O)=C[C@H]2[C@@H]2C(C)(C)[C@]12OC(C)=O : -4.9

Entry CCSc1nc(COC(=O)NC)c(COC(=O)NC)n1C — recorded growth inhibition = -4.25

Reported growth inhibition ( N#CC(C#N)=CN1CCCC1 ) = 9.4

growth inhibition reading for CC(C)[C@@H]1CC[C@@H](C)C[C@H]1OC(=O)c1c2n(c3ccccc13)C[C@H]1OC(C)(C)O[C@@H]21 : -6.65

The recorded growth inhibition for entry C=CC1(C)CCC2C(=CCC3C2(C)CC(O)C(O)C3(C)COC2OC(C(=O)O)C(O)C(O)C2O)C1 (stereo not drawn) (tested in a mixture with another compound) equals -3.55

growth inhibition measured on Cc1cc(C(=O)O)c(C(=O)O)c(=O)[nH]1 = 5.8

// field: growth inhibition; key: O=C(CCN1CCCCC1)c1cc2cc([N+](=O)[O-])ccc2oc1=O ; value = 29.6

Per the records, this molecule ( COC1C=CC2OC(c3ccccc3)OCC2O1 (stereo not drawn) ) has growth inhibition equal to 9.1

growth inhibition reported for this molecule N#CC(=Nc1ccccc1)c1cccc(Br)c1 : 5.05

molecule CN(NC(=O)/C(=C\c1ccccc1Cl)NC(=O)c1ccccc1)c1cn[nH]c(=O)c1Cl , growth inhibition observed: -11.8

The reported growth inhibition of the molecule COC(=O)C(C(=O)C(=O)Nc1cccc([N+](=O)[O-])c1)c1nc2ccc([N+](=O)[O-])cc2[nH]c1=O (stereo not drawn) was 17.6

// recorded growth inhibition for C/C(=N/OC1=CC(=O)CC(C)(C)C1)c1ccccc1 : 0.8

The reported growth inhibition of the molecule C=Cn1c2ccccc2c2ccccc21 was 18.9

Measured growth inhibition of O=c1c2ccccc2[nH]c2ccc(O)cc12 : -7.95

Noted for CC1=CC(=O)N2[C@H](OC[C@@H]2C(C)C)O1 : its growth inhibition reads -2.35

Entry C1CCc2nc3c(nc2C1)CCCC3 ; growth inhibition = 1.6

// growth inhibition lookup, molecule = O/N=C/c1nc2ccccc2s1 , result: 22.8

Notebook: CCOC(=O)C(CN(CC)CC)c1ccccc1 (stereo not drawn) , growth inhibition read as -6.35

So for S=C(N/N=C/c1cccc2ccccc12)Nc1c(Cl)cccc1Cl , the logged growth inhibition turned out to be 83.6

Consider O=C1c2ccccc2C(=O)c2c(O)c(Cc3ccccc3)cc(O)c21 . Its measured growth inhibition is 11.9

The reported growth inhibition of the molecule Cn1nnc2c(C(N)=S)ncn2c1=O was 11

Reported growth inhibition of CNC(=O)OCCC(OC(=O)NC)C1CCC2C3CCC4CC(OC(=O)c5ccccc5)CCC4(C)C3CCC12C (stereo not drawn) : 1.7

Form: molecule = COc1ccc(C2N(NC(=O)c3ccncc3)C(=O)CS2(=O)=O)cc1F (stereo not drawn) ; growth inhibition = -12.6

Field growth inhibition (entry CC(=O)OCC1OC(n2cnc3c(N)ncnc32)C2OC(C)(C)OC12 (stereo not drawn) ) reads -30.2

// sample Cc1ccc(NC(=O)C(c2ccccc2)c2ccccc2)cc1 , its growth inhibition was 19.4

Record Cc1cccc2c(SCCCCCCSc3c4ccccc4nc4c(C)cccc34)c3ccccc3nc12 , field growth inhibition: -8.1

Reported growth inhibition ( N#Cc1nc(CC(=O)c2ccccc2Cl)c(CC(=O)c2ccccc2Cl)nc1C#N ) = 20.1

Measured growth inhibition, CN1C(CC(=O)c2ccccc2)CCCC1CC(O)c1ccccc1 (stereo not drawn) : 2.25

Notebook: COc1ncn(C2CC(OC(=O)c3ccc(C)cc3)C(COC(=O)c3ccc(C)cc3)O2)c(=O)n1 (stereo not drawn) , growth inhibition read as -9.1

So for CC[N+](C)(CC)CCN1C(=O)CC[C@@]2(C)C1=CC[C@@H]1[C@@H]2CC[C@@]2(C)[C@H]1CC[C@]2(C)O , the logged growth inhibition turned out to be 8.8

growth inhibition reading for N#C/C(=C\c1ccccn1)c1nc(-c2ccc(Cl)cc2)cs1 : -27.9

Recorded result, COc1ccc(CSc2nc3ccccc3nc2-c2cccs2)cc1 , growth inhibition: -39.2

The reported numbers originate from PubChem BioAssay (NCI).
